biological target: human GABAA α2β2γ1 receptor (Homo sapiens (Human), UniProt P47869+Q8N1C3); assay: Radioligand binding assay for γ1-containing GABAA subtypes, [3H]RO7239181 competition (α2β2γ1); settings: Ki h-GABAA α2β2γ1, [3H]RO7239181 competition binding, human GABAA α2β2γ1
pKi: −log10 of the molar value.
Let's look at some compounds and their measured pKi.
Measurement Kind: pKi

Structure String: C[C@@H]1N=C(c2ncccc2F)c2c(ccc(Cl)c2Cl)-n2nc(C(=O)N3CC4(COC4)C3)nc21
Measurement Kind: pKi
Obs Value: 7.29

Structure String: Fc1cccc(F)c1C1=NCc2nc(C(F)F)nn2-c2ccc(Cl)c(Cl)c21
Measurement Kind: pKi
Obs Value: 7.97

Structure String: Cc1cnc2n1-c1ccc(Cl)c(Cl)c1C(c1c(F)cccc1F)=N[C@H]2C
Measurement Kind: pKi
Obs Value: 8.28

Structure String: C[C@@H]1N=C(c2ncccc2F)c2c(ccc(C(F)(F)F)c2Cl)-n2nc(C(=O)N3CCS(=O)(=O)CC3)nc21
Measurement Kind: pKi
Obs Value: 7.58

Structure String: COCc1cn2c(n1)CN=C(c1c(F)cccc1F)c1c-2ccc(Cl)c1Cl
Measurement Kind: pKi
Obs Value: 8.02

Structure String: C[C@@H]1N=C(c2c(F)cccc2F)c2c(ccc(Cl)c2Cl)-n2nc(C(=O)NCC#N)nc21
Measurement Kind: pKi
Obs Value: 8.34

Structure String: C[C@@H]1N=C(c2c(F)cccc2F)c2c(ccc(Cl)c2Cl)-n2cc(C#N)nc21
Measurement Kind: pKi
Obs Value: 8.02

Structure String: Cc1nnc(-c2nc3n(n2)-c2ccc(C(F)(F)F)c(Cl)c2C(c2ncccc2F)=N[C@H]3C)o1
Measurement Kind: pKi
Obs Value: 7.13

Structure String: Cc1cnc2n1-c1ccc(Br)c(Cl)c1C(c1c(F)cccc1F)=N[C@H]2C
Measurement Kind: pKi
Obs Value: 8.24

Structure String: [2H]C([2H])([2H])OC1CN(C(=O)c2nc3n(n2)-c2ccc(Cl)c(Cl)c2C(c2c(F)cccc2F)=N[C@H]3C)C1
Measurement Kind: pKi
Obs Value: 8.59

Structure String: CO[C@H]1CCN(C(=O)c2nc3n(n2)-c2ccc(Cl)c(Cl)c2C(c2ncccc2F)=N[C@H]3C)C1
Measurement Kind: pKi
Obs Value: 7.16

Structure String: C[C@@H]1N=C(c2ncccc2F)c2c(ccc(C(F)(F)F)c2Cl)-n2nc(C(=O)NCCO)nc21
Measurement Kind: pKi
Obs Value: 7.05

Structure String: C[C@@H]1N=C(c2ncccc2F)c2c(ccc(Cl)c2Cl)-n2nc(C(=O)N3CC(OC(F)F)C3)nc21
Measurement Kind: pKi
Obs Value: 7.66

Structure String: C[C@@H]1N=C(c2ncccc2F)c2c(ccc(C(F)(F)F)c2Cl)-n2nc(C(=O)NCCF)nc21
Measurement Kind: pKi
Obs Value: 7.05

Structure String: C[C@@H]1N=C(c2c(F)cccc2F)c2c(ccc(C(F)(F)F)c2Cl)-n2nc(N3CCOC3=O)nc21
Measurement Kind: pKi
Obs Value: 8.26

* * *

target: human GABAA α2β2γ1 receptor (Homo sapiens (Human), UniProt P47869+Q8N1C3); assay: Radioligand binding assay for γ1-containing GABAA subtypes, [3H]RO7239181 competition (α2β2γ1); details: Ki h-GABAA α2β2γ1, [3H]RO7239181 competition binding, human GABAA α2β2γ1
pKi: −log10 of the molar value.
Recorded measurements of pKi, one per entry

Molecule: C[C@@H]1N=C(c2ncccc2F)c2c(ccc(C(F)(F)F)c2Cl)-n2nc(C(=O)N3CC(OC(F)F)C3)nc21 [Example 140]
pKi: 7.54
--
Molecule: C[C@@H]1N=C(c2c(F)cccc2F)c2c(ccc(C(F)(F)F)c2Cl)-n2c1nc1c2CCC1 [Example 133]
pKi: 7.63
--
Molecule: C[C@@H]1N=C(c2ncccc2F)c2c(ccc(C(F)(F)F)c2Cl)-n2cc(C(=O)N[C@H]3C[C@@H](O)C3)nc21 [Example 166]
pKi: 7.33
--
Molecule: C[C@@H]1N=C(c2c(F)cccc2F)c2c(ccc(Cl)c2Cl)-n2nc(N3CC(O)C3)nc21 [Example 66]
pKi: 8.21
--
Molecule: [2H]C([2H])([2H])OC1CN(C(=O)c2nc3n(n2)-c2ccc(C(F)(F)F)c(Cl)c2C(c2ncccc2F)=N[C@H]3C)C1 [Example 104]
pKi: 7.43
--
Molecule: C[C@@H]1N=C(c2c(F)cccc2F)c2c(ccc(C(F)(F)F)c2Cl)-n2nc(C(=O)N3CC(C(F)F)C3)nc21 [Example 122]
pKi: 7.97
--
Molecule: Cc1cn2c(n1)[C@H](C)N=C(c1ncccc1F)c1c-2ccc(C(F)(F)F)c1Cl [Example 139]
pKi: 7.51
